B1: DVL3 (parent)
chain: FCADNPSELPPPMERTGGIGDSRP

Variants of: B1
Method: protein stability index of a GFP-peptide fusion (GPS, HEK-293T) (PSI 1-6); higher = more stable;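 also: lentivirally expressed fusions sorted by FACS into six bins by GFP to DsRed ratio, PSI derived from sequencing read proportions per bin multiplied by bin number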
Assay conditions: c terminus: a fixed tail appended
Assay endpoint: protein stability index

>>> print(df.to_string())
                   polymer_sequence  readout_number
 0   FCADNTSELPPPMERTGGIGDSRP [P6T]            3.99
 1  FCADNPSELPPPMECTGGIGDSRP [R15C]            4.69
 2  FCADNPSELPPPMERTGGIHDSRP [G20H]            4.18
 3   FCADNPSEYPPPMERTGGIGDSRP [L9Y]            4.11
 4  FCADNPSELPPPMERTGNIGDSRP [G18N]            4.89
 5   FCADNPNELPPPMERTGGIGDSRP [S7N]            4.45
 6  FCADNPSELPPPMERTGGIGPSRP [D21P]            4.16
 7   FCADNHSELPPPMERTGGIGDSRP [P6H]            4.08
 8   FCADNPSQLPPPMERTGGIGDSRP [E8Q]            2.77
 9  FCADNPSELPPPTERTGGIGDSRP [M13T]            4.57
10  FCADNPSELPPPMERTGGIGTSRP [D21T]            4.52
11  FCADNPSELPPPMERTGFIGDSRP [G18F]            4.03
12  FCADNPSELPPPMERTGGIGDQRP [S22Q]            5.11
13   FCADNPSYLPPPMERTGGIGDSRP [E8Y]            3.25
14  FCADNPSELPPPMERTPGIGDSRP [G17P]            4.85
15   MCADNPSELPPPMERTGGIGDSRP [F1M]            3.45
16   FCADNGSELPPPMERTGGIGDSRP [P6G]            3.85
17  FCADNPSELPPPLERTGGIGDSRP [M13L]            4.98
18  FCADNPSELPPPMERTQGIGDSRP [G17Q]            4.73
19  FCADNPSELPPPMERTMGIGDSRP [G17M]            4.48
20  FCADNPSELPPPMERVGGIGDSRP [T16V]            4.02
21  FCADNPSELCPPMERTGGIGDSRP [P10C]            3.81
22  FCADNPSELPPPMERTGGIGDSKP [R23K]            4.94
23   FCADNPSNLPPPMERTGGIGDSRP [E8N]            4.26
24  FCADNPSELPPPMERTNGIGDSRP [G17N]            4.74
25   FCADNPSERPPPMERTGGIGDSRP [L9R]            4.32
26   FCAENPSELPPPMERTGGIGDSRP [D4E]               5
27  FCADNPSELPPPMERTGGVGDSRP [I19V]            5.09
28  FCADNPSELPPPMERQGGIGDSRP [T16Q]               5
29   FCADVPSELPPPMERTGGIGDSRP [N5V]            4.58
30   FCADNPAELPPPMERTGGIGDSRP [S7A]            4.57
31  FCADNPSELPPPMERTGGIGDIRP [S22I]               4
32  FCADNPSELPPPMERDGGIGDSRP [T16D]            5.18
33  FCADNPSELPPPMERTGGIGDSSP [R23S]            4.75
34  FCADNPSELPPPMERTGGIGDDRP [S22D]            4.88
35  FCADNPSELPPPDERTGGIGDSRP [M13D]            4.98
36  FCADNPSELPPHMERTGGIGDSRP [P12H]            4.61
37  FCADNPSELPPPMERTGGIGNSRP [D21N]            4.11
38  FCADNPSELPPPMQRTGGIGDSRP [E14Q]             4.1

Source listed as the supplement of paper PMC10567573.
